target: AChE in SH-SY5Y cells (Homo sapiens)
Sequence (P22303 32-614): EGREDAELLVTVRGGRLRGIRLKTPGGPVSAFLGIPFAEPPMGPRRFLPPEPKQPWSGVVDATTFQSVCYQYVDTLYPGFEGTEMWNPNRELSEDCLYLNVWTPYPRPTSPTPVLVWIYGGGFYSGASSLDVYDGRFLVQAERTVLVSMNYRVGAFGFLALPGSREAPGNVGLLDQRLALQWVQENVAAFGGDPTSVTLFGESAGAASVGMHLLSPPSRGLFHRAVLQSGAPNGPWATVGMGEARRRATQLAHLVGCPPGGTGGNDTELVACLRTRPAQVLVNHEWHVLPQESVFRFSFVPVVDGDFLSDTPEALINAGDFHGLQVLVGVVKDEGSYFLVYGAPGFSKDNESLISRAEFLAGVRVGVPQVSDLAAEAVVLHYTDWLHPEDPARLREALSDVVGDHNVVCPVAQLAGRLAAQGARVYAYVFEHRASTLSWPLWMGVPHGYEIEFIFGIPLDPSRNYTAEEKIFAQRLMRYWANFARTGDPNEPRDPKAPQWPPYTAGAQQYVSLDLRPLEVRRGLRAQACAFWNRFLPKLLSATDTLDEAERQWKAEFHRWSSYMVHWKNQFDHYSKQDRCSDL
run.description: cell-based
quantity.measured: CC-v2 (curve classes)

CCOP(=S)(OCC)SCn1nnc2ccccc2c1=O [Azinphos-ethyl]: -1.1
CCCCCC1Nc2cc(C(F)(F)F)c(S(N)(=O)=O)cc2S(=O)(=O)N1 (centres unmarked) [Penflutizide]: -2.1
CC[C@@H](CO)NC(=O)[C@@H]1C=C2c3cccc4c3c(cn4C)C[C@H]2N(C)C1 [Methysergide]: -1.1
COP(=O)(OC)Oc1ccc([N+](=O)[O-])cc1 [Methylparaoxon]: -1.1
COP(=O)(OC)O/C(=C\Cl)c1cc(Cl)c(Cl)cc1Cl [Z-Tetrachlorvinphos]: -2.2
CNC(=O)Oc1ccccc1OC(C)C [Propoxur]: -1.1
CCN(CC)CCNC(=O)c1c(C)[nH]c(/C=C2\C(=O)Nc3ccc(F)cc32)c1C [Sunitinib malate, reference compound]: -1.1
O=C(CCC1CCN(Cc2ccccc2)CC1)c1ccc2c(c1)NCCCC2.O=C(O)/C=C/C(=O)O [Zanapezil fumerate, reference compound]: -1.1

---

Here we list compounds with their recorded CC-v2 (curve classes) when tested on recombinant human AChE (Homo sapiens, UniProt P22303).
Sequence (P22303 32-614): as above
Structures can show the parent of a compound that is named as a salt.
quantity.measured: CC-v2 (curve classes)

CC[C@@H](CO)NC(=O)[C@@H]1C=C2c3cccc4c3c(cn4C)C[C@H]2N(C)C1 [Methysergide]: 4
COP(=O)(OC)SCn1c(=O)oc2cc(Cl)cnc21: -2.1
O=C(O)/C=C/C(=O)O.O=C1c2ccccc2C(=O)N1CCc1noc(-c2ccc(CN3CCCCCC3)s2)n1: -2.2
COCCCOc1ccnc(C[S+]([O-])c2nc3ccccc3[nH]2)c1C (centres unmarked) [Rabeprazole sodium]: 1.1
CN1C[C@H](C(=O)N[C@]2(C)O[C@@]3(O)[C@@H]4CCCN4C(=O)[C@H](Cc4ccccc4)N3C2=O)C=C2c3cccc4[nH]cc(c34)C[C@H]21 [Ergotamine D-tartrate]: 4
COCCCN1CCC(NC(=O)c2cc(Cl)c(N)c3c2OCC3)CC1 [Prucalopride]: 4
O=S(=O)([O-])SSS(=O)(=O)[O-].[K+].[K+] [Potassium tetrathionate]: -2.1
N#Cc1sc2c(=O)c3ccccc3c(=O)c=2sc1C#N: 4
COc1ccc(OC(F)(F)F)cc1CN[C@H]1CCCN[C@H]1c1ccccc1 [CP-122721, reference compound]: 4
CCN(CC)CCOc1ccc2c(c1)C(=O)c1cc(OCCN(CC)CC)ccc1-2 [Tilorone, reference compound]: -1.1
[H]/N=C(\N/C(=N/[H])NCCCCCCNC(=N)NC(=N)Nc1ccc(Cl)cc1)Nc1ccc(Cl)cc1 [Chlorhexidine dihydrochloride]: 4
Cc1nc(N(C)C)nc(OC(=O)N(C)C)c1C: -2.2
COc1cc(C(=O)NCc2ccc(OCCN(C)C)cc2)cc(OC)c1OC [Trimethobenzamide hydrochloride]: 4
Cc1cc(OC(=O)N(C)C)nn1C(=O)N(C)C: -2.1
COP(=O)(OC)O/C(=C\Cl)c1cc(Cl)c(Cl)cc1Cl: 4
Cc1ccc2c(n1)Oc1ccc(C(C)C(=O)OCC(=O)N(C)C)cc1C2 (centres unmarked) [Mepranoprofen arbamel, reference compound]: 4
CNC(=O)O/N=C(\C)C(C)S(C)(=O)=O (centres unmarked): 4
COc1cc2nc(N3CCN(C(=O)C4COc5ccccc5O4)CC3)nc(N)c2cc1OC (centres unmarked) [Doxazosin mesylate]: 4
CCOP(=S)(OCC)Oc1cc(-c2ccccc2)on1: -1.1
CNC(=O)Oc1ccccc1C(C)C: -2.1
O=S1OC[C@@H]2[C@H](CO1)[C@]1(Cl)C(Cl)=C(Cl)[C@@]2(Cl)C1(Cl)Cl (some centres unmarked) [Endosulfan I]: -3
CCCCC(CC)CNC(=N)NC(=N)NCCCCCCNC(=N)NC(=N)NCC(CC)CCCC (centres unmarked) [Alexidine dihydrochloride]: 4
CC(C)=CCN1CC[C@@]2(C)c3cc(O)ccc3C[C@@H]1[C@@H]2C.O=C(O)CCC(=O)O [(-)-Pentazocine succinate, reference compound]: 4
CNC(=O)O/N=C/C(C)(C)[S+](C)[O-] (centres unmarked) [Aldicarb sulfoxide]: -1.1
CCOP(=O)(Sc1ccccc1)Sc1ccccc1: -3
CCCSP(=O)(OCC)Oc1ccc(Br)cc1Cl (centres unmarked): -1.1
CCN(C(=O)c1cc(C)cc(OC[C@H](C)Nc2ccncc2)c1)C(C)C.Cc1ccc(S(=O)(=O)O)cc1 [GW473178E methyl benzene sulfonic acid]: -2.2
NC(=O)N=NC(N)=O [Azodicarbonamide]: 4
CCOP(=S)(OCC)Oc1nc(Cl)c(Cl)cc1Cl [Chlorpyrifos, reference compound]: -1.1
CN1C(=O)COc2c(C(=O)NC3CN4CCC3CC4)cc(Cl)cc21 (centres unmarked) [Azasetron hydrochloride, reference compound]: 4
O=C(C[S+]([O-])Cc1ccco1)NC/C=C\COc1cc(CN2CCCCC2)ccn1 (centres unmarked): 4
Nc1c(/N=N/c2ccc(-c3ccc(/N=N/c4cc(S(=O)(=O)O)c5ccccc5c4N)cc3)cc2)cc(S(=O)(=O)O)c2ccccc12: 4

---

target: recombinant human AChE (Homo sapiens)
run.description: biochemical
condition.parameters: potency (IC50), Enzyme
Structures can show the parent of a compound that is named as a salt.
quantity.measured: IC50 (µM)

CCOC(=O)c1ccc(NC(=O)CN2CCCCC2)cc1 [Sulcaine, reference compound]: 20.1
CCCCN(CCCC)SN(C)C(=O)Oc1cccc2c1OC(C)(C)C2 [Carbosulfan]: 1.67
CCOP(=S)(OCC)Oc1cc(C)nc(C(C)C)n1 [Diazinon]: 19.4
Cc1cc(OC(=O)N(C)C)nn1C(=O)N(C)C [Dimetilan]: 16
CCOC(=O)CCN(SN(C)C(=O)Oc1cccc2c1OC(C)(C)C2)C(C)C [Benfuracarb]: 4.97
COP(=O)(OC)SCn1c(=O)oc2cc(Cl)cnc21 [Azamethiphos]: 1.91
CNC(=O)Oc1ccccc1OC(C)C [Propoxur]: 1.55
CN1CCCC(n2nc(Cc3ccc(Cl)cc3)c3ccccc3c2=O)CC1 (stereo not shown) [Azelastine (hydrochloride), reference compound]: 25.4
CCCCOc1ccc(C(=O)CCN2CCCCC2)cc1 [Dyclonine HCl, reference compound]: 20.9
CCOP(=S)(OCC)Oc1cc(-c2ccccc2)on1 [Isoxathion]: 44.4
CCOP(=S)(OCC)SC(CCl)N1C(=O)c2ccccc2C1=O (stereo not shown) [Dialifor]: 41.1
CNC(=O)Oc1ccc(N(C)C)c(C)c1 [Aminocarb]: 7.92
CN1C[C@H](CNC(=O)OCc2ccccc2)C[C@@H]2c3cccc4c3c(cn4C)C[C@H]21 [Metergoline, reference compound]: 5.46

---

target: AChE in neural stem cell spheroids (Homo sapiens)
Sequence (P22303 32-614): as above
run.description: cell-based
condition.parameters: potency (IC50), Neural stem cell spheroid (24 h)
pIC50: −log10 of the molar value.
# pIC50 annotations
quantity.measured: pIC50

CNC(=O)O/N=C(\SC)C(=O)N(C)C: 6.02
Cl.Clc1cc(Cl)c2c(c1)N=C1CCCCCN1C2: 4.87
O=C(O)/C=C/C(=O)O.O=C1c2ccccc2C(=O)N1CCc1noc(-c2ccc(CN3CCCCCC3)s2)n1: 4.77
CNC(=O)O/N=C/C(C)(C)[S+](C)[O-] (stereo not shown) [Aldicarb sulfoxide]: 6.62
CNC(=O)Oc1cccc2c1OC(C)(C)C2: 5.61
CNC(=O)Oc1ccccc1OC(C)C: 4.70
CCOP(=S)(OCC)SCSc1ccc(Cl)cc1: 5.66
CCOC(=O)CCN(SN(C)C(=O)Oc1cccc2c1OC(C)(C)C2)C(C)C: 4.92
CS/C(C)=N\OC(=O)N(C)SN(C)C(=O)O/N=C(\C)SC: 5.12
CNC(=O)Oc1cccc2c1OC(C)(C)O2: 4.35
CC/N=c1\cc2oc3cc(NCC)c(C)cc3c(-c3ccccc3C(=O)OCC)c-2cc1C: 4.53
CCOP(=S)(OCC)Oc1cnc2ccccc2n1: 5.79
CCCCSP(=O)(SCCCC)SCCCC: 4.50
CCOP(=S)(OCC)SCn1nnc2ccccc2c1=O: 5.65
CNC(=O)ON=C(C)SC: 5.20
COP(=O)(OC)SCn1c(=O)oc2cc(Cl)cnc21: 5.74
Cc1c(Cl)c(=O)oc2cc(OP(=O)(OCCCl)OCCCl)ccc12: 6.70
C=CC[N+]1([C@H]2C[C@H]3[C@@H]4CC[C@H]5C[C@H](OC(C)=O)[C@@H](N6CCCCC6)C[C@]5(C)[C@H]4CC[C@]3(C)[C@H]2OC(=O)CC)CCCCC1 [Rapacuronium bromide, reference compound]: 5.44
CCOP(=S)(OCC)SCn1c(=O)oc2cc(Cl)ccc21: 5.02
CCOC(=O)CC(SP(=O)(OC)OC)C(=O)OCC (stereo not shown): 5.30
Cc1cc(OC(=O)N(C)C)nn1C(=O)N(C)C: 5.82
CCOP(=S)(OCC)Oc1cc(-c2ccccc2)on1: 6.14
CCOC(=O)c1ccc(NC(=O)CN2CCCCC2)cc1 [Sulcaine, reference compound]: 4.81
CNC(=O)ON=C(CSC)C(C)(C)C: 5.55
CCOP(=S)(OCC)SC(CCl)N1C(=O)c2ccccc2C1=O (stereo not shown): 5.01
CNC(=O)Oc1ccc(N(C)C)c(C)c1: 4.59
CNC(=O)Oc1cc(C)cc(C(C)C)c1: 6.03
CCOP(=S)(OCC)SCSP(=S)(OCC)OCC: 7.05
